Reference for the values: paper PMC4301919

- tested on: T1, TRBP-dsRBD1 (UniProt Q15633-2 9-85)
- T1 sequence: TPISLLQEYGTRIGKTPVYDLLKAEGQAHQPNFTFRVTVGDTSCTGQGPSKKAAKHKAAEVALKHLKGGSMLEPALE
- procedure text: EMSA; apparent Kd; nH 2.9; 50 mM sodium cacodylate pH 7.0, 50 mM potassium glutamate, 5% glycerol; EMSA 0.5 pM RNA, 30 min at room temperature, gel 0.25X TBE at 10 C; CD at 10 C with 5-15 uM RNA
- condition label: protein: recombinant; label: 5'-32P top strand (EMSA); blunt
endpoint label: Kd (nM)

1) ds33 (dsRNA) RNA 1: GGUCAGCAGUGCCUUAGCAGCACGUAAAUAUGG RNA 2: CCAUAUUUACGUGCUGCUAAGGCACUGCUGACC: 900
